- Protocol: plasmodial surface anion channel blockers, osmotic lysis – cell-based, P. falciparum Indochina, OD700, 1 h, primary screen (AID 1154)
- Test Conditions: P. falciparum Indochina infected RBC osmotic lysis, higher = more signal, called active from +8 up or from −8 down
We use 5 as the dividing line for z-score: on or above the line is condition met, below is condition not met.

Compound	Answer Label
CC(C)(C)OC(=O)CC[C@@]1(C(=O)N2CCCCC2)N=C(c2ccc(OCCCO)cc2)O[C@@H]1c1ccccc1N=[N+]=[N-]	condition met

Confirm if z-score reported for the compound C=C(/C(=C/C[C@@H](OC(=O)c1ccncc1)c1cccc(OCCO)c1)c1cc(C(=O)OC)ccc1OC)C(C)C is 5 or above.
condition met

Confirm if z-score reported for the compound COC(=O)[C@@]1(Cc2ccccc2N=[N+]=[N-])N=C(c2ccc(OCCCO)cc2)O[C@H]1c1ccccc1 is 5 or above.
condition met

Confirm if z-score reported for the compound COc1ccc(CCNC(=O)[C@@H]2c3ccccc3C(=O)N(Cc3ccccc3)[C@H]2c2ccc(CO)cc2)cc1 is 5 or above.
condition not met

* * *

Give composite z-score for every item shown.
- System: Inhibin beta A chain (activin A)
- Protocol: small molecules binding activin A – biochemical, small-molecule microarray, 635 nm fluorescence scan, primary screen (AID 1107);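 note: mouse activin A protein probed at 4.33 µg/mL on printed slides; score merges bound-protein fluorescence near 667 nm with spot signal-to-noise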
- Test Conditions: INHBA, higher = more signal
Give bare numbers.

Here is how some compounds turned out for composite z-score.
> print(dat)
                                   compound                   subject.of.test  reported.value
1  CO[C@H]1O[C@H](CO)[C@@H](OC(=O)c2ccc(Br)cc2)[C@@H]2OC(=O)[C@H](Cc3cccc(Br)c3)C/C=C/C[C@@H](Cc3cccc(Br)c3)C(=O)O[C@@H]12  Inhibin beta A chain (activin A)           0.602
2  CC(C)(C)OC(=O)CC[C@@]1(C(=O)N2CCCCC2)N=C(c2ccc(OCCCO)cc2)O[C@@H]1c1ccccc1N=[N+]=[N-]  Inhibin beta A chain (activin A)           0.899
3  CC1(C)[C@@H]2CC(C(O)C3C=CC4C(=O)N(c5ccccc5)C(=O)C4N3Nc3ccccc3F)=C[C@@H]1C2 (some centres not stated)  Inhibin beta A chain (activin A)           0.603

Value sought for every listed compound: composite z-score.
1. C#CCOC(=O)N[C@H](C=CCCCC)c1ccccc1
2. Cc1ccc(-c2cccc(=O)o2)cc1
3. COc1ccc([Si](C)(C)[C@H]2[C@H](CCn3cc(CCO)nn3)O[C@@]3(C(=O)N(Cc4cccc(N5C(=O)c6cccc7cccc5c67)c4)c4ccccc43)[C@@H]2C)cc1
4. O=C1NC(=O)C2C1C=CC(C(O)CCc1ccccc1)N2Nc1ccccn1 (configuration not stated)

[0.983, 1.35, -0.427, 0.584]

* * *

Give composite z-score for every item shown.
- Protocol: probe aEGFR binding to arrayed compounds – biochemical, biotinylated probe, 635/667 nm fluorescence, primary screen (AID 1097);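 note: probe is a biotinylated anti-EGFR antibody binding compounds printed on slides; score combines fluorescence near 667 nm and signal to noise of each spot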
- Test Conditions: small-molecule microarray, higher = more signal
Answers are plain numbers.

Here is how some molecules turned out for composite z-score.
> print(dat)
                                   molecule  reported.value
1  O=C1NC(=O)C2C1C=CC(C(O)c1ccc3c(c1)OCO3)N2Nc1ccc(Cl)cc1Cl (centres undefined)          -0.108
2  CC(C)(C)N1CC=CC23O[C@@H]4C=CCCOC(=O)C4[C@H]2C(=O)N(CCCO)[C@@H]3C1=O (some centres undefined)          -0.268

Value sought for every listed molecule: composite z-score.
1. CCOC(=O)C1=CC[C@@H](c2ccccc2)N(S(=O)(=O)c2ccc(C)cc2)[C@H]1C=C(C)C
2. C[C@@H]1ON(c2ccccc2)[C@H](c2ccccc2)[C@H]1C(=O)N1C(=O)OC[C@H]1Cc1ccccc1

1. 0.101
2. -0.0549
